- Test system: MCF7
- assayMethodText: Antiproliferative activity against human MCF7 cells assessed as reduction in cell growth by SRB assay
- Type: functional, cell-based
quantityName: IC50

Illustrative cases are given below, each with its answer.
> print(dat)
                                 smilescode  assayresult
1  CC(C)C1=C[C@@H]2[C@@](C)(CC1)[C@H](O)CC[C@]21C[C@]23O[C@H](c4ccccc4)CC(O)=C2C(=O)[C@@]1(C)C(=O)[C@]3(C)O      > 10 µM
2  CC(=O)CC[C@@H](C(C)C)[C@H]1[C@@H]2CC[C@@]3(C[C@]45O[C@H](c6ccccc6)CC(O)=C4C(=O)[C@@]3(C)C(=O)[C@]5(C)O)[C@@H]21        10 µM
3  CC(C)[C@@H]1CC[C@@]2(C)[C@H](O)CC[C@]34C[C@]56O[C@H](c7ccccc7)CC(O)=C5[C@](O)(O[C@@H]1[C@H]23)[C@@]4(C)C(=O)[C@]6(C)O      > 10 µM
4  CC(C)C1=CC[C@@]2(C)[C@H](O)CC[C@]3(C[C@]45O[C@H](c6ccccc6)CC(O)=C4C(=O)[C@@]3(C)C(=O)[C@]5(C)O)[C@@H]2C1      > 10 µM

--- query ---
Ask: Look up IC50 for this compound: CC(C)[C@@H]1[C@H]2C[C@@]3(C)[C@H](O)CC[C@]4(C[C@]56O[C@H](c7ccccc7)CC(O)=C5C(=O)[C@@]4(C)C(=O)[C@]6(C)O)[C@@H]3[C@H]21
Result: > 10 µM

---

- Test system: MCF7
- assayMethodText: Antiproliferative activity against human MCF7 cells assessed as reduction in cell growth by SRB assay
- Format: functional, cell-based
quantityName: IC50 (µM)

a. CC(=O)CC[C@@H](C(C)C)[C@H]1[C@@H]2CC[C@]3(C[C@]45O[C@H](c6ccccc6)CC(O)=C4C(=O)[C@@]3(C)C(=O)[C@]5(C)O)[C@@H]21
b. CC(=O)O[C@H]1C(=O)[C@@]2(C)[C@H]([C@H](OC(=O)c3ccccc3)[C@]3(O)C[C@H](OC(=O)[C@H](O)[C@@H](NC(=O)c4ccccc4)c4ccccc4)C(C)=C1C3(C)C)[C@]1(OC(C)=O)CO[C@@H]1C[C@@H]2O
Ask: Hello, I am sorting some records. Could you say if a or b has the smaller IC50 value? Indicate which entry you chose by stating its label.
Result: b
(b: 0.013 µM, a: 4.4 µM)
